- assay method text: Displacement of 125 I-gastrin from gastrin receptor of guinea pig gastric glands
measured parameter: IC50 (µM)

compound	result
CCOC(=O)CN1C(=O)C(NC(=O)c2ccc(Cl)cc2)N=C(c2ccccc2F)c2ccccc21 (racemic)	0.69
